Where do the numbers come from? From the NIST ThermoML archive (doi:10.1016/j.fluid.2010.03.027).

# PROCEDURE_DETAILS: activity coefficient (dimensionless); of the first substance listed, at infinite dilution; xn = mol fraction of the nth substance listed
# RECORDED_CONDITIONS: 288.15 K; 101 kPa; Liquid; dilutor technique; x1 = 0
MEASURED_METRIC: activity coefficient

• CSC [2-thiapropane] + CCCCCC = 2.16
• CSC [2-thiapropane] + C=CCCCC = 1.77
• CSC [2-thiapropane] + C=C(C)CC(C)(C)C = 1.5
• CSC [2-thiapropane] + CC(C)CC(C)(C)C = 1.77

----------
# PROCEDURE_DETAILS: activity coefficient (dimensionless); of the first substance listed, at infinite dilution; xn = mol fraction of the nth substance listed
# RECORDED_CONDITIONS: 298.15 K; 101 kPa; Liquid; dilutor technique; x1 = 0
MEASURED_METRIC: activity coefficient

- CSC [2-thiapropane] + C=CCCCC: 1.71
- CSC [2-thiapropane] + C=C(C)CC(C)(C)C: 1.45
- CSC [2-thiapropane] + CC(C)CC(C)(C)C: 1.72
- CSC [2-thiapropane] + CCCCCC: 1.95

----------
# PROCEDURE_DETAILS: activity coefficient (dimensionless); of the first substance listed, at infinite dilution; xn = mol fraction of the nth substance listed
# RECORDED_CONDITIONS: 303.15 K; 101 kPa; Liquid; dilutor technique; x1 = 0
MEASURED_METRIC: activity coefficient

• CSC [2-thiapropane] + C=C(C)CC(C)(C)C = 1.4
• CSC [2-thiapropane] + CC(C)CC(C)(C)C = 1.67
• CSC [2-thiapropane] + CCCCCC = 1.91
• CSC [2-thiapropane] + C=CCCCC = 1.64
